These data points were gathered from PubChem BioAssay AID1918996.

# System: 349418-098-R-PDC complex spheroid growth;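 further: spheroids also contain HUVEC endothelial cells and human MSC stroma; spheroids exposed to agents for seven days before luminescence viability read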
# Protocol: Anticancer human tumor 349418-098-R-PDC patient-derived lung adenocarcinoma cell line growth inhibition [AhR]; active means viability on the fitted dose curve at most 10% of control; inactive means the rest
# Recorded conditions: second compound 10 µM; first compound 0.3 µM
# Excerpt: Multicellular complex tumor spheroid response to aryl hydrocarbon receptor antagonists in combination with a variety of drugs and investigational agents in selected tumor cell lines […] Compounds. […] If the clinical Cmax for an agent had not been determined, the highest concentration tested was 10 microM (Table 1). […]
Response enum: active, inactive

CC(C)CC(NC(=O)C(Cc1ccccc1)NC(=O)c1cnccn1)B(O)O (stereo unspecified) + Cc1ccccc1N=Nc1ccc(NC(=O)c2ccnn2C)c(C)c1: active

Data request: Check the results log: what was the call for CCc1c2c(nc3ccc(O)cc13)-c1cc3c(c(=O)n1C2)COC(=O)[C@]3(O)CC + CC(CO)NC(=O)c1cc(-c2ccc(Cl)cc2)nn(-c2cnn(C)c2)c1=O ?
Data returned: active

Data request: GET /call?item= Nc1ncn(C2CC(O)C(CO)S2)c(=O)n1 (stereo unspecified) + CC(CO)NC(=O)c1cc(-c2ccc(Cl)cc2)nn(-c2cnn(C)c2)c1=O returns the recorded outcome of this test.
Data returned: inactive

Data request: Recorded test call requested for CCN(c1cc(-c2ccc(CN3CCOCC3)cc2)cc(C(=O)NCc2c(C)cc(C)[nH]c2=O)c1C)C1CCOCC1 + Cc1cncc(-c2nc(NCCc3c[nH]c4ccccc34)c3ncn(C(C)C)c3n2)c1
Data returned: active

Data request: Short answer needed: outcome of this test for CCc1c2c(nc3ccc(O)cc13)-c1cc3c(c(=O)n1C2)COC(=O)[C@]3(O)CC + Cc1ccccc1N=Nc1ccc(NC(=O)c2ccnn2C)c(C)c1 ?
Data returned: active

Data request: Dear colleague, could you share the recorded outcome for CCN(c1cc(-c2ccc(CN3CCOCC3)cc2)cc(C(=O)NCc2c(C)cc(C)[nH]c2=O)c1C)C1CCOCC1 + CC(CO)NC(=O)c1cc(-c2ccc(Cl)cc2)nn(-c2cnn(C)c2)c1=O when you have a moment?
Data returned: inactive
